Values from paper PMC9967275

# TARGET OF ASSAY: cruzain (Trypanosoma cruzi, UniProt P25779);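 note: at 5 µM compound concentration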
# Sequence (P25779 123-337 limits assumed): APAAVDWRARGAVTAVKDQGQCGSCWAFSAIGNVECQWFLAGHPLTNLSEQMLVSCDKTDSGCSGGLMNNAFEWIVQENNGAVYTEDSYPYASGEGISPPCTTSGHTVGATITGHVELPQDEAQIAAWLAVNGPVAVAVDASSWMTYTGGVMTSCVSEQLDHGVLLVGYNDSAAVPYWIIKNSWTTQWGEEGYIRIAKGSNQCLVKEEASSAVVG
# ASSAY OVERVIEW: biochemical
# EXPERIMENTAL CONTEXT: 0’ (pre-incubation time); sheet "Screening results"
OUTCOME MEASURE: Cruzain 0’ Inhibition (%)
Reply numerically in %, unit not repeated.

Example cases with answers are listed next.
CCC(NC(=O)c1ccccc1NC(=O)c1ccc(C)cc1)C(=O)OC (centres unmarked) = -0.5
C[C@@H]1[C@H](O)[C@@H](C)/C=C/C=C/C=C/C=C/C=C/C=C/C=C/[C@H](O[C@@H]2O[C@H](C)[C@@H](O)[C@H](N)[C@@H]2O)C[C@@H]2O[C@](O)(C[C@@H](O)C[C@@H](O)[C@H](O)CC[C@@H](O)C[C@@H](O)CC(=O)O[C@H]1C)C[C@H](O)[C@H]2C(=O)O = 10
CCOc1ccc(-c2nc(CNCCc3ccc(F)cc3)cs2)cc1 = 6

IN: Any idea what Cruzain 0’ Inhibition was measured for CC(C)n1nc(-c2cc3c(Cl)cccc3[nH]2)c2c(N)ncnc21 ?
OUT: 5.6

IN: Please look up its Cruzain 0’ Inhibition: Nc1ncnc2c1ncn2[C@@H]1O[C@H](COS(=O)(=O)NC(=O)c2ccccc2O)[C@@H](O)[C@H]1O
OUT: 3

IN: Need Cruzain 0’ Inhibition, item CC(Oc1ccccc1)C(=O)Nc1nc(-c2ccccn2)cs1 (centres unmarked)
OUT: -2.3

###

# TARGET OF ASSAY: cruzain (Trypanosoma cruzi, UniProt P25779);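 note: at 5 µM compound concentration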
# ASSAY OVERVIEW: biochemical
# EXPERIMENTAL CONTEXT: 0’ (pre-incubation time); sheet "Screening results"
OUTCOME MEASURE: Cruzain 0’ Inhibition (%)
Numbers only; they are read as %.

Recorded results for 8 compounds are shown here.
FC(F)(F)c1ccc(N(c2cccnc2)C2CCN(c3ccc(C(F)(F)F)cn3)CC2)cc1 = 2.3
Cc1nn(C)cc1C(C)Nc1nncc(-c2ccc(C(F)(F)F)cc2)n1 (stereo not drawn) = -5
NS(=O)(=O)c1cccc(-c2ccc3ncc(N4CCOCC4)nc3c2)c1 = -5.3
NCC(=O)N1CCn2c(nc(-c3ccccc3)c2Nc2ccc3c(c2)OCO3)C1 = 1.8
Clc1ccc(Cl)c(CO[C@H]2CCCC[C@@H]2n2ccnc2)c1 = 2.8
COc1cc(C2=NCCN2)ccc1-c1cn(-c2cccc(C3=NCCN3)c2)nn1 = 2.2
O=C(Nc1ccccc1-c1nc2c(C(=O)O)cccc2o1)c1ccccc1 = 8
Cc1ccc(-c2nc(CN(Cc3ccccn3)C(C)C)cs2)o1 = -17

Continue with the next compound.
IN: Give its Cruzain 0’ Inhibition value. Item: Clc1cccc(CO[C@H]2CCc3ccccc3[C@@H]2n2ccnn2)c1
OUT: -3

###

# TARGET OF ASSAY: TbrCatL (Trypanosoma brucei rhodesiense)
# Construct: Conor Caffrey (University of California San Diego)
# Sequence (Q95PM0 entry or part of it): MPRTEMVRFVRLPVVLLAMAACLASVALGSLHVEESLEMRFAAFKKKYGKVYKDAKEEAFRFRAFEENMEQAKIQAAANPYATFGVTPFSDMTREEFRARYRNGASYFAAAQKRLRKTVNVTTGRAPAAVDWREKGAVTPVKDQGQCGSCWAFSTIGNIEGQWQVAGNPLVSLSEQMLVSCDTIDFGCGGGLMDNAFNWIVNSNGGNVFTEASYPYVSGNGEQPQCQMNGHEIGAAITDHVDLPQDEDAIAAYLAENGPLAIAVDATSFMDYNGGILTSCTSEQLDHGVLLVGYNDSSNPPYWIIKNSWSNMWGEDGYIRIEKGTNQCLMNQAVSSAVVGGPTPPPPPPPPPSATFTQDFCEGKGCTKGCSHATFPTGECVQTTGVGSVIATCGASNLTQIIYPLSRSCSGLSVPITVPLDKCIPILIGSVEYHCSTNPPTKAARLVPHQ
# ASSAY OVERVIEW: TbrCatL enzymatic inhibition assay (cleavage of fluorogenic substrate Z-FR-AMC);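 note: at 5 µM compound concentration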
# Type: biochemical
# EXPERIMENTAL CONTEXT: 10’ (pre-incubation); sheet Screening results
OUTCOME MEASURE: TbrCatL Inhibition 10’ (%)
Express it in %; write the number only.

COC(=O)Nc1nc2ccc(C(=O)c3ccccc3)cc2[nH]1 = -5.3
CCCCS(=O)(=O)Nc1ccc2cnn(C)c2c1 = -1.9
CC(C(=O)Nc1ccc2oc(-c3ccncc3)nc2c1)c1ccccc1 (stereo not shown) = 20
COc1ccc(C2=NCCN2)cc1-c1cn(-c2cccc(C3=NCCN3)c2)nn1 = 4
Cc1ccc2oc(-c3cc(NC(=O)Cc4ccccc4)ccc3Cl)nc2c1 = 12
Cn1ncc2c(N3CCOCC3)nc(NCCc3c[nH]c4ccccc34)nc21 = 7.5

IN: Requested field: TbrCatL Inhibition 10’. Item: CC(C)(C)OC(=O)N1CCN(c2nccc(-c3ccc(-c4ccc(Cl)cc4)s3)n2)CC1
OUT: 27

IN: Need TbrCatL Inhibition 10’ of CNC(=O)C1Cc2ccccc2N1C(=O)Cc1ccc(F)cc1 (stereo not shown) , thanks.
OUT: 13

IN: Reported TbrCatL Inhibition 10’, compound CCOc1ccc(-c2nc(NC(=O)CS(=O)(=O)c3ccccc3)sc2C)cc1 : ____
OUT: 9

IN: Given the compound Nc1c2c(nc3sc4c(c13)CCCC4)CCCC2 , what is its reported TbrCatL Inhibition 10’?
OUT: 2

IN: Need TbrCatL Inhibition 10’, item CC(C)C(NC(=O)Cc1cccc2ccccc12)C(=O)Nc1cccc(C#N)c1 (stereo not shown)
OUT: -3.7

IN: Fill blank: measured TbrCatL Inhibition 10’ of the compound O=C(NCCc1c[nH]c2ccccc12)c1cc2ccccc2oc1=O is ____.
OUT: 20

IN: Fill in: TbrCatL Inhibition 10’ of COc1ccc(-c2nc(-c3cccc(NC(=O)Cc4ccc(F)cc4)c3)no2)cc1OC is ___
OUT: 10

IN: Report TbrCatL Inhibition 10’ for Cc1[nH]c2ccccc2c1C(c1cccs1)N1CCN(C)CC1 (stereo not shown) please.
OUT: 2.4

IN: Suppose we examine the compound CCOc1ccc2cc(-c3nn(C(C)(C)C)c(N)c3C(N)=O)cnc2c1 ; what TbrCatL Inhibition 10’ value has been reported?
OUT: -4

IN: Which measured TbrCatL Inhibition 10’ value corresponds to COC(=O)c1ccc(F)cc1NS(=O)(=O)c1cccc(-c2cnn(Cc3ccccc3)c2)c1 ?
OUT: -9

IN: Entry CC(C)(C)n1nc(-c2ccccc2)c2c(N)ncnc21 has what TbrCatL Inhibition 10’?
OUT: 12

IN: # TbrCatL Inhibition 10’ lookup, item Cc1ncc(-c2ccnc(Nc3ccc(S(C)(=O)=O)cc3)n2)n1C(C)C
OUT: -26

IN: Data request, read-out TbrCatL Inhibition 10’, for COc1ccc(Nc2ccccc2NC(=O)c2ccc(=O)[nH]c2)cc1
OUT: 4.5
